# system: L-lactate dehydrogenase (Homo sapiens)
# experimental details: Inhibition of LDH in human A673 cells assessed as reduction in lactate production preincubated for 2 hrs measured after 30 mins by high throughput fluorescence assay
# Format: cell-based
The source made the active and inactive calls. The rule behind the calls is not given here.
recorded endpoint: inhibition

Below, 5 compounds whose answers are already recorded.
{"columns": ["compound structure", "system", "inhibition"],
 "data": [
  ["Cc1cc(-c2ccccc2)nn1-c1nc(C(=O)O)cs1", "L-lactate dehydrogenase (Homo sapiens)", "inactive"],
  ["O=C(O)c1csc(-n2nc(-c3cccc4ccccc34)cc2O)n1", "L-lactate dehydrogenase (Homo sapiens)", "inactive"],
  ["O=C(O)c1csc(-n2nc(-c3ccc(F)c(F)c3)cc2O)n1", "L-lactate dehydrogenase (Homo sapiens)", "inactive"],
  ["O=C(O)c1csc(-n2nc(-c3ccc(F)cc3F)cc2O)n1", "L-lactate dehydrogenase (Homo sapiens)", "inactive"],
  ["Nc1cc(-c2ccccc2)nn1-c1nc(C(=O)O)cs1", "L-lactate dehydrogenase (Homo sapiens)", "inactive"]
]}

Q) Return value of inhibition for input "CC(C)c1cc(-c2ccccc2)nn1-c1nc(C(=O)O)cs1" , no commentary.
A) inactive

Q) Return value of inhibition for input "O=C(O)c1csc(-n2nc(-c3ccccn3)cc2O)n1" , no commentary.
A) inactive

Q) Return value of inhibition for input "O=C(O)c1csc(-n2nc(-c3cccc(Cl)c3)cc2C(F)(F)F)n1" , no commentary.
A) inactive

Q) Return value of inhibition for input "O=C(O)c1csc(-n2nc(-c3ccncc3)cc2O)n1" , no commentary.
A) inactive

Q) Return value of inhibition for input "O=C(O)c1csc(-n2nc(-c3ccc(F)cc3)cc2O)n1" , no commentary.
A) inactive

Q) Return value of inhibition for input "O=C(O)c1csc(-n2nc(-c3cccc(-c4ccccc4)c3)cc2O)n1" , no commentary.
A) inactive
